Biological target: PAF receptor (Oryctolagus cuniculus)
Sequence (G1TEI7 1-342): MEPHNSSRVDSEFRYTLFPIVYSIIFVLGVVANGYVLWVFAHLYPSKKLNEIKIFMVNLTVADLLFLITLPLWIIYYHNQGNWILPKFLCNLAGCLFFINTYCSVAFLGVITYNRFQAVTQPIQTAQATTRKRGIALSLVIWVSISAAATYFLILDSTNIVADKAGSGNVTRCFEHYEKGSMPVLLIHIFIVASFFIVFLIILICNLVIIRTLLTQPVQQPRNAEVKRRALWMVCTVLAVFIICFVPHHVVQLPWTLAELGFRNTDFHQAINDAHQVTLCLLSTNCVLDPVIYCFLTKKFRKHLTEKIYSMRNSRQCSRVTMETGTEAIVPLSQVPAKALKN
Assay: [3H]PAF receptor binding assay using rabbit washed platelets
Conditions: 0.2 nM [3H]PAF, 4° C., 2 hrs

# COMPOUND, UNIT_OF_MEASUREMENT, IC50
records = [
    ("C=C(C)C1CCC(C)=C2CCC(C)C2C1 (stereo not shown)", "µM", 17.6),
]

----------
Test system: PAF-induced platelet aggregation
Test: PAF-induced platelet aggregation in rabbit washed platelets
Format: cell-based
Conditions: PAF 5 nM, read-out: IC50, inhibition of platelet aggregation induced by PAF

# COMPOUND, UNIT_OF_MEASUREMENT, IC50
records = [
    ("C=C(C)C1CCC(C)=C2CCC(C)C2C1 (centres unmarked)", "µM", 24.5),
    ("CCCCCCCCCCCCCCCCCCNC(=O)OCC(COP(=O)([O-])OCC[n+]1ccsc1)OC (centres unmarked)", "µM", 2.4),
]

Measured values drawn from patent US20070088090A1 for this set.
